Listed here are molecules together with their documented pIC50.
Biological target: human recombinant mGluR5 receptor (Homo sapiens, UniProt P41594)
Construct: expressed in transfected cells; expression induced with doxycycline
Sequence (P41594 21-1212): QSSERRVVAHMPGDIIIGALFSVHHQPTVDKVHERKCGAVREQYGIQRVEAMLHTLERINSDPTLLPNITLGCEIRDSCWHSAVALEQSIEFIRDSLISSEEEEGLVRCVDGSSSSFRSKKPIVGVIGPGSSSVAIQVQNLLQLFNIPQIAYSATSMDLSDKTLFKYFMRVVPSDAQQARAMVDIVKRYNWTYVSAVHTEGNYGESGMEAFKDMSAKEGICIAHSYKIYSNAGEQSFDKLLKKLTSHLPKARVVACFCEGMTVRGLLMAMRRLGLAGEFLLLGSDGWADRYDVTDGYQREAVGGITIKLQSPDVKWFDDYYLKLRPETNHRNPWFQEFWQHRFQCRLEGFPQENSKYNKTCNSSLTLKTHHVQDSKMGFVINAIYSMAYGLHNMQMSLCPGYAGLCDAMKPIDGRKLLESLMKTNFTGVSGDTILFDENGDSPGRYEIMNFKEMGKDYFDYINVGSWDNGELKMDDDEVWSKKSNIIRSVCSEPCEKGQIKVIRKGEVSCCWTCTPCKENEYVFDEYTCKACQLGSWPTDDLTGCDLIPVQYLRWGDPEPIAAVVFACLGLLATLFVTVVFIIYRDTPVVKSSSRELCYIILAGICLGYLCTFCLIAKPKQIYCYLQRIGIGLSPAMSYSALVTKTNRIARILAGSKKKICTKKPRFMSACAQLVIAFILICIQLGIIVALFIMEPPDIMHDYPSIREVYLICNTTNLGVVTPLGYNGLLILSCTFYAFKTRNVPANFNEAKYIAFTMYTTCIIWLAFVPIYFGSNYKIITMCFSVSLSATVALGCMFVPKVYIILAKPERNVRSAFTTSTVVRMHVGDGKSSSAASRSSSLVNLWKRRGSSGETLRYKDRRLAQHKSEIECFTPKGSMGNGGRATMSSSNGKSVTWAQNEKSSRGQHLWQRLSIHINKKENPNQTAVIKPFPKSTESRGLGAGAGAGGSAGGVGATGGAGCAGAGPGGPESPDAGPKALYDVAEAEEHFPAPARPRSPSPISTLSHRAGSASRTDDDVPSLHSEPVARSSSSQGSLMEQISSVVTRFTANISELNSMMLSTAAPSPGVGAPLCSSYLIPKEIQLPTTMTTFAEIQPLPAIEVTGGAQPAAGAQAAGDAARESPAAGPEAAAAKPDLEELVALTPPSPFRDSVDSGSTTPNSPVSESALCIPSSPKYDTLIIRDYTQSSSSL
Experiment: mGluR5 in vitro functional assay (aequorin cell line, inhibition of glutamate EC80 response)
Type: cell-based
Details: Table 2; aequorin cell line expressing human mGluR5, reference agonist glutamate at EC80; obtained in duplicate; read-out: IC50
pIC50: −log10 of the molar value.

Check out these entries, answers already filled in.
[
  {
    "molecule": "N#Cc1cc(F)cc(N2CCCc3oc(-c4ccc(F)cn4)nc3C2)c1",
    "readoutName": "pIC50",
    "observedResult": "> 6.00"
  },
  {
    "molecule": "COc1ccc(F)cc1N1CCc2oc(-c3ccccn3)nc2C1",
    "readoutName": "pIC50",
    "observedResult": "> 6.00"
  },
  {
    "molecule": "[2H]c1c(F)c([2H])c(N2CCCc3oc(-c4ccccn4)nc3C2)c([2H])c1C#N",
    "readoutName": "pIC50",
    "observedResult": "> 6.00"
  }
]

`N#Cc1cccc(N2CCc3nc(C4CCCCC4)oc3C2)c1` has a reported pIC50 of > 5.00

// sample `Cc1cccnc1-c1nc2c(o1)CCN(c1cccc(Cl)c1)C2` , its pIC50 was < 5.00

`Cc1nc(-c2nc3c(o2)CCN(c2ccccc2Cl)C3)cs1` yielded pIC50 of > 6.00

pIC50 in this record for `Cc1nc(-c2nc3c(o2)CCCN(c2ccccn2)C3)cs1` : > 5.00

The recorded pIC50 for entry `Clc1ccc(Cl)c(N2CCc3oc(-c4ccccn4)nc3C2)c1` equals > 6.00

Briefly, pIC50 measured for `O=C(CN1CCc2nc(-c3ccccn3)oc2C1)c1ccc(F)cc1` : < 5.00
